// merged dataset of IC50 values, system = High affinity nerve growth factor receptor (Homo sapiens), multiple refs

// worked examples, IC50 included
| molecule | tested_system | IC50 |
| --- | --- | --- |
| Cc1cnc(-c2ccccc2)c(NC(=O)N[C@@H]2c3ccc(Br)cc3C(C)(C)C[C@H]2O)c1 (racemic) | High affinity nerve growth factor receptor (Homo sapiens) | ≤ 50 nM |
| C[C@@H]1CCn2cc(nn2)[C@H]2CCCN2c2ccn3ncc(c3n2)C(=O)N1 | High affinity nerve growth factor receptor (Homo sapiens) | > 1000 nM |
| Cc1c(OC[C@H](O)CO)nn(-c2ccccc2)c1NC(=O)N[C@@H]1CN(c2cn[nH]c2)C[C@H]1c1ccc(F)c(F)c1 | High affinity nerve growth factor receptor (Homo sapiens) | < 100 nM |

Output measured IC50 for this item: CNc1ncnc2[nH]cc(C(=O)c3ccc(Nc4ccc(C(F)(F)F)nc4)nc3F)c12 < 10 nM

---

// merged dataset of IC50 values, system = High affinity nerve growth factor receptor (Homo sapiens), multiple refs

// worked examples, IC50 included
| compound | IC50 |
| --- | --- |
| COCCN1C[C@@H](NC(=O)Nc2oc(C(C)C)nc2-c2ccccc2)[C@H](c2ccc(F)c(F)c2)C1 | < 100 nM |
| Cc1c(C#Cc2cnc3ccc(N4CCC(N)CC4)nn23)cccc1C(=O)Nc1cc(Cl)cc(C(F)(F)F)c1 | 10 to 100 nM |
| COc1cc(C(C)n2c(N)nc3cc(-c4cnn(C)c4)cnc32)ccc1OCc1ccc(C(F)(F)F)nc1 (centres unmarked) | 0.4 nM |
| Cc1cc(NC(=O)N[C@@H]2c3ccccc3C(C)(C)C[C@H]2O)c(C2CCOCC2)nc1C(N)=O (racemic) | 50 to 1000 nM |
| C=C1c2ncc(F)cc2[C@H]2[C@@H]3C[C@@H]3CN2c2ccn3ncc(c3n2)C(=O)N[C@@H]1C (single isomer, unassigned) | < 100 nM |
| Fc1cc(F)cc(Oc2ccc3[nH]nc(/C=C/c4ccccn4)c3c2)c1 | 21.8 nM |
| COCCN1C[C@@H](NC(=O)Nc2c(-c3ccccc3)nn3ccccc23)[C@H](c2ccc(F)c(F)c2)C1 | < 100 nM |

Provide High affinity nerve growth factor receptor (Homo sapiens) IC50 reading for COc1ccc(COc2ccc(Cn3cnc4cc(-c5cnn(C6CCNCC6)c5)cnc43)cc2OC)cn1 . 1 nM

---

// merged dataset of IC50 values, system = High affinity nerve growth factor receptor (Homo sapiens), multiple refs

| compound | IC50 |
| --- | --- |
| COCCN1C[C@@H](NC(=O)Nc2cc(C(C)(C)C#N)nn2-c2ccccc2)[C@H](c2ccc(F)c(F)c2)C1 | < 100 nM |
| C(=C\c1n[nH]c2ccc(Cc3ccccc3)cc12)/c1ccccn1 | 33.2 nM |
| Cc1cc(Nc2nc3c(cc2F)ncn3[C@@H](C)c2ncc(F)cn2)n[nH]1 | 66 nM |
| C[C@@H]1CCc2ncc(F)cc2[C@H]2[C@@H]3[C@H](CN2c2ccn4ncc(c4n2)C(=O)N1)C3(C)C | > 1000 nM |
| COCCN1C[C@@H](NC(=O)Nc2c(-c3ccccc3)nn(C(C)C)c2C)[C@H](c2ccc(F)c(F)c2)C1 | 100 to 1000 nM |

Output measured IC50 for this item: CCOc1ccn(C2CCCCC2)c(=O)c1C(=O)Nc1ccc(Oc2ccnc3cc(OC)c4c(c23)OCCO4)c(F)c1 > 5000 nM

Output measured IC50 for this item: CCOc1nc(CO)ccc1NC(=O)c1coc2c1C(=O)NC(C)(C)C2 49.2 nM

Output measured IC50 for this item: CC(=O)c1ccc(-c2cc(OC3CCOCC3)c3c(N)n[nH]c3c2)cc1N1CCN(C2CCCCC2)CC1 38.1 nM

Output measured IC50 for this item: C[C@@H]1CCOc2ccc(F)cc2[C@H]2CCCN2c2ccc3ncnc(c3n2)N1 < 50 nM

Output measured IC50 for this item: Cn1cc(C(=O)Nc2ccc(Oc3ncnc4cc(OCCCN5CCOCC5)c5c(c34)OCCO5)c(F)c2)c(=O)n(-c2ccc(F)cc2)c1=O < 50 nM

Output measured IC50 for this item: COc1ccc(COc2ccc(Cn3cnc4cc(-n5cc(C6CCCNC6)nn5)ccc43)cc2OC)cn1 (centres unmarked) 175 nM

Output measured IC50 for this item: Cc1cc(NC(=O)c2cccc(C#Cc3cnc4ccc(N5CCOCC5)nn34)c2C)cc(C(F)(F)F)c1 10 to 100 nM

Output measured IC50 for this item: O=C(Nc1ccc(Oc2ncnc3cc(OCCCN4CCOCC4)c4c(c23)OCCO4)c(F)c1)c1cccn(-c2ccc(F)cc2)c1=O < 50 nM

Output measured IC50 for this item: O=C(Nc1c2c(nn1-c1ccccc1)CCC2)N[C@@H]1CN(Cc2ncc[nH]2)C[C@H]1c1ccccc1 (relative stereo) 100 to 1000 nM

Output measured IC50 for this item: COCCN1C[C@@H](NC(=O)Nc2c(Cl)c(COC)nn2-c2ccccc2)[C@H](c2ccc(F)c(F)c2)C1 < 100 nM

Output measured IC50 for this item: Cc1cc(NC(=O)N[C@@H]2c3cc(F)c(F)cc3C(C)(C)C[C@H]2O)c(-c2ccccc2)nc1CO (racemic) ≤ 50 nM

Output measured IC50 for this item: COCCN1C[C@@H](NC(=O)Nc2ccc(Cl)nc2-c2ccccc2)[C@H](c2ccc(F)c(F)c2)C1 < 100 nM

Output measured IC50 for this item: COc1ccc(Nc2ccc(C(=O)c3c[nH]c4ncnc(C5CC5)c34)c(F)n2)cn1 < 10 nM

Output measured IC50 for this item: CC(C)NC(=O)[C@H]1CC[C@@H](n2/c(=N/C(=O)c3ccc(F)cc3)[nH]c3ccc(CN4CCC(C(C)(C)O)CC4)cc32)CC1 < 1 nM
